Test: Dog PO pharmacokinetic studies with P-gp inhibitor encequidar mesylate (Example E)
Format: in vivo, beagle dog
Conditions: male, beagle, plasma; dog PO 4 mg/kg, encequidar mesylate 5 mg-eq/kg PO about 30 min before, dosed compound measured
REPORTED ENDPOINT: AUC(0-inf) (µM·h)
# value in µM·h; strip the unit string

COC1=NO[C@@]2(CC[C@H](C)N3C[C@H]2n2cc(C(=O)NCc4ccc(F)cc4F)c(=O)c(O)c2C3=O)C1 [Intermediate C]	2300

API: the following record is the query input.
Output AUC(0-inf) of CC1=NO[C@@]2(CC[C@H](C)N3C[C@H]2n2cc(C(=O)NCc4ccc(F)cc4F)c(=O)c(O)c2C3=O)C1 [Intermediate B]
3980

###

Known CC50 at 5 days of a selection of compounds
Experiment: in vitro
Conditions: human, uninfected MT-4 cells
# value in µM; strip the unit string

Example compounds with recorded CC50 at 5 days:
CC1=NO[C@@]2(CC[C@H](C)N3C[C@H]2n2cc(C(=O)NCc4ccc(F)cc4F)c(=O)c(OCOC(=O)OCC(C)(C)COP(=O)(O)O)c2C3=O)C1	14
CC[C@H](OP(=O)(O)O)[C@H](C)OC(=O)OCOc1c2n(cc(C(=O)NCc3ccc(F)cc3F)c1=O)[C@@H]1CN(C2=O)[C@@H](C)CC[C@]12CC(C)=NO2	27.2
CC1=NO[C@@]2(CC[C@H](C)N3C[C@H]2n2cc(C(=O)NCc4ccc(F)cc4F)c(=O)c(OCOC(=O)OC[C@@H](C)OP(=O)(O)O)c2C3=O)C1	9.78
CC1=NO[C@@]2(CC[C@H](C)N3C[C@H]2n2cc(C(=O)NCc4ccc(F)cc4F)c(=O)c(OCOC(=O)O[C@H](C)C[C@@H](C)OP(=O)(O)O)c2C3=O)C1	12.9
CC1=NO[C@@]2(CC[C@H](C)N3C[C@H]2n2cc(C(=O)NCc4ccc(F)cc4F)c(=O)c(OCOC(=O)O[C@H](C)COP(=O)(O)O)c2C3=O)C1	12.1

Output CC50 at 5 days of CC[C@H](OP(=O)(O)O)[C@@H](C)OC(=O)OCOc1c2n(cc(C(=O)NCc3ccc(F)cc3F)c1=O)[C@@H]1CN(C2=O)[C@@H](C)CC[C@]12CC(OC)=NO2
45.7

###

Assay: in vitro
Details: human
REPORTED ENDPOINT: CC50 (µM)
# value in µM; strip the unit string

CC1=NO[C@@]2(CC[C@H](C)N3C[C@H]2n2cc(C(=O)NCc4ccc(F)cc4F)c(=O)c(OC(=O)OCCOP(=O)(O)O)c2C3=O)C1	15.2

API: the following record is the query input.
Output CC50 of CC1=NO[C@@]2(CC[C@H](C)N3C[C@H]2n2cc(C(=O)NCc4ccc(F)cc4F)c(=O)c(OCOC(=O)OCCCCOP(=O)(O)O)c2C3=O)C1
50

###

Known solubility thermodynamic at 24 h of a selection of molecules
Assay: physchem
Conditions: FaSSIF, 23 °C, thermodynamic from solid
# value in µg/mL; strip the unit string

Example molecules with recorded solubility thermodynamic at 24 h:
COC1=NO[C@@]2(CC[C@H](C)N3C[C@H]2n2cc(C(=O)NCc4ccc(F)cc4F)c(=O)c(OCOC(=O)O[C@@H](C)[C@@H](C)OP(=O)(O)O)c2C3=O)C1 [Compound 59]	5240
CC1=NO[C@@]2(CC[C@H](C)N3C[C@H]2n2cc(C(=O)NCc4ccc(F)cc4F)c(=O)c(OC(=O)OCC[N+](C)(C)C)c2C3=O)C1 [Compound 16, trifluoroacetic acid]	2230
COC1=NO[C@@]2(CC[C@H](C)N3C[C@H]2n2cc(C(=O)NCc4ccc(F)cc4F)c(=O)c(OCOC(=O)O[C@H](C)[C@H](C)OP(=O)(O)O)c2C3=O)C1 [Compound 60]	4520
CC1=NO[C@@]2(CC[C@H](C)N3C[C@H]2n2cc(C(=O)NCc4ccc(F)cc4F)c(=O)c(OCOC(=O)OC(C)C(C)(C)OP(=O)(O)O)c2C3=O)C1 (stereo partly shown) [Compound 56]	4240

Output solubility thermodynamic at 24 h of CC1=NO[C@@]2(CC[C@H](C)N3C[C@H]2n2cc(C(=O)NCc4ccc(F)cc4F)c(=O)c(OCOC(=O)OC[C@@H](C)OP(=O)(O)O)c2C3=O)C1 [Compound 22]
4180

Output solubility thermodynamic at 24 h of COC1=NO[C@@]2(CC[C@H](C)N3C[C@H]2n2cc(C(=O)NCc4ccc(F)cc4F)c(=O)c(OC(=O)OC[C@H](C)OP(=O)(O)O)c2C3=O)C1 [Compound 38]
2460

Output solubility thermodynamic at 24 h of COC1=NO[C@@]2(CC[C@H](C)N3C[C@H]2n2cc(C(=O)NCc4ccc(F)cc4F)c(=O)c(OCOC(=O)OCCOP(=O)(O)O)c2C3=O)C1 [Compound 3]
6650

Output solubility thermodynamic at 24 h of CC[C@H](COP(=O)(O)O)OC(=O)OCOc1c2n(cc(C(=O)NCc3ccc(F)cc3F)c1=O)[C@@H]1CN(C2=O)[C@@H](C)CC[C@]12CC(C)=NO2 [Compound 25]
5130

Output solubility thermodynamic at 24 h of CC1=NO[C@@]2(CC[C@H](C)N3C[C@H]2n2cc(C(=O)NCc4ccc(F)cc4F)c(=O)c(OCOC(=O)OCC(C)(C)COP(=O)(O)O)c2C3=O)C1 [Compound 12]
5280

Output solubility thermodynamic at 24 h of CC1=NO[C@@]2(CC[C@H](C)N3C[C@H]2n2cc(C(=O)NCc4ccc(F)cc4F)c(=O)c(OCOC(=O)OC[C@H](C)COP(=O)(O)O)c2C3=O)C1 [Compound 69]
4600

###

Experiment: Dog PO pharmacokinetic studies with P-gp inhibitor encequidar mesylate (Example E)
Assay type: in vivo, beagle dog
Settings: male, beagle, plasma; dog PO 4 mg/kg, encequidar mesylate 5 mg-eq/kg PO about 30 min before, dosed compound measured
REPORTED ENDPOINT: bioavailability (%)
# value in %; strip the unit string

CC1=NO[C@@]2(CC[C@H](C)N3C[C@H]2n2cc(C(=O)NCc4ccc(F)cc4F)c(=O)c(O)c2C3=O)C1 [Intermediate B]	70.3

API: the following record is the query input.
Output bioavailability of COC1=NO[C@@]2(CC[C@H](C)N3C[C@H]2n2cc(C(=O)NCc4ccc(F)cc4F)c(=O)c(O)c2C3=O)C1 [Intermediate C]
82.3

###

Assay: physchem
Details: FaSSIF, 23 °C, thermodynamic from solid
REPORTED ENDPOINT: solubility thermodynamic at 24 h
Provide a numeric answer, followed by its unit.

CC1=NO[C@@]2(CC[C@H](C)N3C[C@H]2n2cc(C(=O)NCc4ccc(F)cc4F)c(=O)c(OCOC(=O)CC(C)(C)CN(CC(=O)O)C(=O)OCOP(=O)(O)O)c2C3=O)C1 [Compound 42]	5080 µg/mL
CC1=NO[C@@]2(CC[C@H](C)N3C[C@H]2n2cc(C(=O)NCc4ccc(F)cc4F)c(=O)c(OCOC(=O)N(CCOP(=O)(O)O)CC(=O)O)c2C3=O)C1 [Compound 46]	4980 µg/mL
CC1=NO[C@@]2(CC[C@H](C)N3C[C@H]2n2cc(C(=O)NCc4ccc(F)cc4F)c(=O)c(OCOC(=O)OC[C@H](C)OP(=O)(O)O)c2C3=O)C1 [Compound 17]	4590 µg/mL

Output solubility thermodynamic at 24 h of CC[C@@H](COC(=O)OCOc1c2n(cc(C(=O)NCc3ccc(F)cc3F)c1=O)[C@@H]1CN(C2=O)[C@@H](C)CC[C@]12CC(C)=NO2)OP(=O)(O)O [Compound 66]
4270 µg/mL

Output solubility thermodynamic at 24 h of COC1=NO[C@@]2(CC[C@H](C)N3C[C@H]2n2cc(C(=O)NCc4ccc(F)cc4F)c(=O)c(OCOC(=O)O[C@H](C)[C@@H](C)OP(=O)(O)O)c2C3=O)C1 [Compound 61]
4800 µg/mL

Output solubility thermodynamic at 24 h of CC1=NO[C@@]2(CC[C@H](C)N3C[C@H]2n2cc(C(=O)NCc4ccc(F)cc4F)c(=O)c(OCOC(=O)OC(C)(C)C(C)OP(=O)(O)O)c2C3=O)C1 (stereo partly drawn) [Compound 55]
4600 µg/mL

###

Assay: in vitro
Settings: human, uninfected MT-4 cells
Known CC50 at 5 days of a selection of compounds

Output CC50 at 5 days of CC1=NO[C@@]2(CC[C@H](C)N3C[C@H]2n2cc(C(=O)NCc4ccc(F)cc4F)c(=O)c(OC(=O)OCC(C)(C)COP(=O)(O)O)c2C3=O)C1
14 µM

Output CC50 at 5 days of CC1=NO[C@@]2(CC[C@H](C)N3C[C@H]2n2cc(C(=O)NCc4ccc(F)cc4F)c(=O)c(OCOC(=O)N(CCOP(=O)(O)O)CC(=O)O)c2C3=O)C1
50 µM
